- measurement_target: T1, human CD73 (huCD73) protein, antigen of the Biacore assay (human, UniProt P21589 27-547, limits assumed)
- T1 construct: also called human CD73 antigen
- T1 sequence (looked up): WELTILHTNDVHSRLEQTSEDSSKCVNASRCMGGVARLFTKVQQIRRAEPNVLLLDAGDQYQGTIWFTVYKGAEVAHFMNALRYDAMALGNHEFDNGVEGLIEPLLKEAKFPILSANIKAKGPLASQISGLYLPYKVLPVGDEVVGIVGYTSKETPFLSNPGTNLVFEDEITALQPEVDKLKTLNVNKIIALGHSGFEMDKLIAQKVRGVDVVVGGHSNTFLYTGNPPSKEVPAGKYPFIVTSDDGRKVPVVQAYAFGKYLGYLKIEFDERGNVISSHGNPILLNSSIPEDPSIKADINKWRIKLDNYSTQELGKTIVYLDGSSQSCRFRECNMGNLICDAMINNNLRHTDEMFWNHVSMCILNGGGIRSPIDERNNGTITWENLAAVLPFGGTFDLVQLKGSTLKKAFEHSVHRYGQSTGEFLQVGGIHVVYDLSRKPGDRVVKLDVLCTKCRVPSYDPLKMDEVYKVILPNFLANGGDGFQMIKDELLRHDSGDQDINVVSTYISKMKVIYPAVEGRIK
- assay_name: SPR Biacore T200; antibody captured on Protein A chip, CD73 in flow; 1:1 Langmuir
measure: kon (M⁻¹ s⁻¹)
Your answer should be a plain number; it is taken to be in M⁻¹ s⁻¹.

binder	measure	recorded_value
Hab108.53 (antibody, V domains shown, VL5 + VH3; full-length antibody) VH: EVTLKESGPVLVKPTETLTLTCTVSGFSLSSYGIQWVRQPPGKLLEWLGVIWSGGSADYNAAFISRLTISKDTSKSQVVLTMTNMDPVDTATYYCAGQYGSVWGQGTLVTVSS VL: DIQMTQSPSSLSASVGDRVTITCRASQDIGDRLNWLQQKPGKAIKRLIYATSSLDSGVPKRFSGSGSGTEYTLTISSLQPEDFATYYCLQYAGSWTFGGGTKVEIK	kon	257000

As a next step, examine the binder that follows.
Form: binder = Hab127.44 (antibody, V domains shown, VL4 + VH4; recombined with human heavy and light constant regions) VH: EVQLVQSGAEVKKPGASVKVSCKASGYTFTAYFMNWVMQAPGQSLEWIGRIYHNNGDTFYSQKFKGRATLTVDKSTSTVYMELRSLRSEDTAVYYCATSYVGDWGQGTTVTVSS VL: DIQMTQSPSSLSASVGDRVTITCRASQDIGDSLNWLQQKPGGALKRLIYATSSLDSGVPSRFSGSGSGSDYTLTISSLQPEDFATYYCLQYASFPWTFGGGTKVEIK ; kon = 230000
